Reference source for all entries: PubChem BioAssay

# TARGET_UNDER_TEST: Guanine nucleotide-binding protein G(o) subunit alpha (Homo sapiens) + Regulator of G-protein signaling 19 (Homo sapiens) (UniProt P09471+P49795)
# Sequence (P09471 whole entry, looked up): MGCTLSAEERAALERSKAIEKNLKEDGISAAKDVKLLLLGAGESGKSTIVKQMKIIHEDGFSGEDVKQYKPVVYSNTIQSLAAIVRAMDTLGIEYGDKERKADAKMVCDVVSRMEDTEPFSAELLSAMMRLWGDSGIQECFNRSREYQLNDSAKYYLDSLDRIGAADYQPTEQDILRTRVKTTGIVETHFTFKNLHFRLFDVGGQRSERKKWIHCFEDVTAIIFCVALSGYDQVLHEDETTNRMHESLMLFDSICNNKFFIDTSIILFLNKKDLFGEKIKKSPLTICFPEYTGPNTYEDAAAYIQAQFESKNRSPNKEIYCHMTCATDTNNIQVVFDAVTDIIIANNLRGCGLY
# Sequence (P49795 whole entry, looked up): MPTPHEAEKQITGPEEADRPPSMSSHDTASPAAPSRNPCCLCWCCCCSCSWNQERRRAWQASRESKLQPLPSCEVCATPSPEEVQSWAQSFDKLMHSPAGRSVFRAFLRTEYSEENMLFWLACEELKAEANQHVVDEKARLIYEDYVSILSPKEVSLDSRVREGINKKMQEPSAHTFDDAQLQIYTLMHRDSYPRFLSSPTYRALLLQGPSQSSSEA
# PROTOCOL_SUMMARY: RGS19 interaction with Gαo, hit retest – biochemical, single point, multiplexed bead flow cytometry, confirmation (AID 1841);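 note: 100% = no compound control and 0% = blank background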
# CONDITION_DESCRIPTION: bead-based flow cytometry RGS19-Galphao binding; at 10 µM; actives lie on both sides
The other results are listed elsewhere or left out. Active and inactive are the calls of the source. Cut-off read from the data, not from the text of the source: active = response below about 50% or above about 160%; inactive = in between.
Pick one and only one: active, inactive

| MOLECULE | ASSIGNED_LABEL |
| --- | --- |
| COc1ccccc1CCNC(=O)CSc1nnc2ccc(-c3cccnc3)nn12 | inactive |

Challenge: Kindly provide the recorded test outcome for the following molecule: `CCOC(=O)NNc1cc(C(F)(F)F)ccn1`
Response given: inactive

Challenge: Please indicate how the test categorized CC(NC(=O)COC(=O)C1CCN(S(=O)(=O)c2ccccc2C(F)(F)F)CC1)c1ccccc1 (stereo not drawn) .
Response given: inactive

Challenge: Record lookup: outcome of this test for `CC(C)(C)NC(=O)c1cccc(NC(=O)Cc2ccc(Br)cc2)c1` ?
Response given: inactive

Challenge: I'd appreciate the recorded outcome for CCOC(=O)C1=C(c2ccccc2)N=C2SCC(=O)N2C1c1ccc(O)c(OC)c1 (stereo not drawn) from this test.
Response given: inactive

Challenge: What is the recorded call for this molecule in the test? `COc1ccc(C(=O)NNc2cc(C)nc(NNC(=O)c3ccc(OC)cc3)n2)cc1`
Response given: inactive

Challenge: Would you mind telling me which call this test gave `CCCn1c(C)cc(C(=O)COC(=O)c2c(C)nn(-c3ccccc3)c2C)c1C` ?
Response given: inactive

Challenge: // param item: Cn1c(=O)c2c(n(Cc3ccccc3)c1=O)NC(=O)C2CC(=O)N1CCc2ccccc2C1 (stereo not drawn) ; yields the recorded call
Response given: inactive

Challenge: State the result this test recorded for `COc1ccc(CCC(=O)OCC(=O)Nc2ccc(C)c(S(=O)(=O)N(C)C)c2)cc1` .
Response given: inactive

Challenge: Check the results log: what was the call for `CN(C)S(=O)(=O)Oc1ccccc1C(=O)Nc1ccccc1Cl` ?
Response given: inactive

Challenge: Would you mind telling me which call this test gave FC(F)Oc1ccccc1C1CC(c2ccc(Br)s2)Nc2ncnn21 (stereo not drawn) ?
Response given: inactive

Challenge: Recorded call for Nc1ccc(C(=O)OCC(=O)NC2CCS(=O)(=O)C2)cc1[N+](=O)[O-] (stereo not drawn) ?
Response given: inactive

Challenge: Hi, sorry to bother you, what did the test record for `COc1cc(C(=O)Nc2cc(C(F)(F)F)ccc2N2CCOCC2)ccc1O` ?
Response given: inactive

Challenge: Query: recorded result category for `O=C(CN1CCOCC1)Nc1ccccc1` in this test
Response given: inactive

----------
Catalogue of compounds with associated double positive events
# PROTOCOL_SUMMARY: reduced mouse 2C T cell binding to pMHC/ICAM-1 vesicles – MLPCN validation set, flow cytometry, LFA-1/ICAM-1 modulator project, pilot screen (AID 2523)
# CONDITION_DESCRIPTION: 2C mouse CD8+ T cells, at 7 µM, stronger effect = lower value; measured here: CD8+/vesicle+ event percentage
Quick reminder: number only, in %, skip the unit.

# count of solved cases: 6
| COMPOUND | ENDPOINT_RESULT |
| --- | --- |
| Cc1ccc(Nc2ncccc2C(=O)O)cc1C | 64.4 |
| Cc1ccccc1NC(=O)NCCc1c[nH]c2ccccc12 | 60.8 |
| Cc1ccc(Cl)c(OCCCN(C)Cc2ccccc2)c1 | 64.5 |
| O=C(CCc1ccccc1)Nc1ccccc1C(F)(F)F | 64.1 |
| COc1cc(C(=O)N/C(=C\c2cn(C)c3ccccc23)C(=O)NCCCO)cc(OC)c1OC | 56.3 |
| CC(C)(C)OC(=O)COc1cc(OCC(=O)OC(C)(C)C)c2c(=O)cc(-c3ccccc3)oc2c1 | 60.3 |

Please fill in: double positive events reported for `COc1cc(OC)c(-c2nc3cnccc3n2C)cc1OC` = 61.8

The compound listed as `O=C(O)Cc1ccc(O)c(F)c1` has a reported double positive events of 61.7

Quick note, double positive events for CCC1CCc2c(sc(NC(=O)c3cccnc3)c2C(N)=O)C1 (stereo not given) landed at 64.4

GET /value?item= `COC(=O)c1ccc(NC(=O)c2ccccc2SC)cc1` &field=double positive events returns 58.4

Measured double positive events, `CCNC(=S)N1CCN(CCN2C(=O)c3cccc4cccc(c34)C2=O)CC1` : 63.5

Short answer for C/C=C/c1ccc(OCCCCN2CC(C)CC(C)C2)c(OC)c1 (stereo not given) : double positive events was 58.6

Query CC1=C/C(=N\N=C2\NC(=O)C(CC(=O)Nc3ccccc3F)S2)CC(C)(C)C1 (stereo not given) yields double positive events of 58

GET /value?item= `O=C(CSCc1ccccc1)NCCCN1CCOCC1` &field=double positive events returns 62.4

# double positive events of `S=C(c1ccc2c(c1)OCO2)N1CCCCC1` = 62.6

What the record says about `O=C1[C@@H]2CSCN2C(=O)CN1Cc1ccc(F)cc1` : double positive events is 61.3

Sample `CC(=O)OCC(=O)[C@@]1(O)[C@H](C)C[C@H]2[C@@H]3CCC4=CC(=O)C=C[C@]4(C)[C@@]3(F)[C@@H](O)C[C@@]21C` ; double positive events observed: 59.3

Data point: `C=C(C)C(=O)Nc1ccc(NC(C)C)cc1` ; double positive events = 66

Short answer for `COc1cccc2c(O)cc(=O)n(C)c12` : double positive events was 61.5

Lab note: measured double positive events of `CCc1ccc2oc(=O)cc(CN3CCC(C)CC3)c2c1` was 53.7

Recorded result, `COc1ccc(CCN2CNc3c(c(=O)n(C)c(=O)n3C)C2)cc1OC` , double positive events: 60.5

In plain terms, `OCCN(Cc1nc(-c2ccc3c(c2)OCO3)no1)Cc1cccs1` has a documented double positive events of 65.7

Per the record, `CN(C)CCOCCOc1ccc(Cl)cc1Br` has double positive events of 47.1

# double positive events of CC12CN3CC(C)(CN(C1)C3c1ccc(Br)cc1O)C2 (stereo not given) = 57.2

----------
# TARGET_UNDER_TEST: GTPase HRas (Homo sapiens)
# PROTOCOL_SUMMARY: Ras wt fluorescent GTP loading blockade – biochemical, wildtype, multiplex bead flow cytometry, dose response (AID 1335)
# CONDITION_DESCRIPTION: bead-based flow cytometry, Bodipy-GTP binding to GST-Ras; at 100 µM (top of the series) unless noted
Reported GTP binding, percent of control values for a set of compounds
Report only the number, with the unit % understood.

| COMPOUND | GTP binding, percent of control, % |
| --- | --- |
| CN(C)S(=O)(=O)c1ccc(C(=O)NNc2nc(-c3ccccc3)c3cc(Br)ccc3n2)cc1 | 71.7 |
| Oc1c(C=Nc2ccccc2)sc(=S)n1Cc1ccccc1 | 75.7 |
| CS(=O)(=O)c1ccc(C(=O)OCC(=O)NC(=O)C2CCCCC2)cc1[N+](=O)[O-] | 76.2 |
| COc1ccccc1C(=O)N=Nc1c(O)[nH]c2ccc([N+](=O)[O-])cc12 | 51.1 |

Then there is this compound:
GET /value?item= O=C(CCc1nnc(-c2ccc3c(c2)OCO3)o1)N1CCC(c2ccc(F)cc2)C1 (stereo not given) &field=GTP binding, percent of control returns 88.1

----------
# PROTOCOL_SUMMARY: reduced mouse 2C T cell binding to pMHC/ICAM-1 vesicles – MLPCN validation set, flow cytometry, LFA-1/ICAM-1 modulator project, pilot screen (AID 2523);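 for vesicle binding response: mean PE anti-B7-1 fluorescence of CD8+ cells relative to row control; 100% = QL9-loaded vesicles with DMSO vehicle in the same plate row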
# CONDITION_DESCRIPTION: 2C mouse CD8+ T cells, at 7 µM, stronger effect = lower value
The source made the active and inactive calls.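 How the source made its calls: active means response below a set limit, under 55% cells CD8-positive and vesicle-bound, and CD8 cells' 90th-percentile brightness under 279; inactive means the rest.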
Overview of recorded vesicle binding response for various compounds

Sample answers from the record:
| COMPOUND | vesicle binding response |
| --- | --- |
| CCc1nc2ccccc2c(NC(=O)CN2CC(C)CC(C)C2)c1C (stereo unspecified) | 179% (inactive) |
| Clc1ccc(CCNc2ncnc3nc[nH]c23)cc1 | 127% (inactive) |
| Cc1ccc2c(c1)C(CCN)C(=O)N2Cc1ccccc1 (stereo unspecified) | 234% (inactive) |

Lab note: `Cc1cccc(C(=O)c2cccc(C)c2)c1` gave vesicle binding response of 45.4% (inactive)

Kindly note the recorded vesicle binding response for CC(=O)C1=C(O)C(=O)N(Cc2cccnc2)C1c1ccc(C(C)C)cc1 (stereo unspecified) , which is 152% (inactive)

For `Cc1ccc(OCc2nc(-c3cccnc3)no2)cc1C` the compound record lists vesicle binding response as 221% (inactive)

----------
As shown below, each of these compounds has a reported GFP response vs DMSO value.
# PROTOCOL_SUMMARY: TOR pathway LAP4-GFP level changes – S. cerevisiae, multiplex flow cytometry, primary screen (AID 1873)
# CONDITION_DESCRIPTION: S. cerevisiae LAP4-GFP expression, 3 h, at 10 µM, stronger effect = higher value
Records with an inconclusive call do not appear.
// return numeric value only (unit: %, not printed)

Please review the following examples before continuing.
| COMPOUND | GFP response vs DMSO, % |
| --- | --- |
| Cc1ccc(NC(=O)CSc2nc(O)c(Cc3ccccc3)c(=O)n2-c2ccccc2)cc1 | 99.3 |
| CNc1c2c(nn1C)CCCC2 | 97 |

Quick note, GFP response vs DMSO for COc1ccc(C2OC(=O)Cc3cc(OC)c(OC)cc32)cc1 (stereo not drawn) landed at 82.5
